- method-description: Ratio of inhibitory activities against human tryptase to that of human thrombin
endpoint-label: Ratio

Value lookup for Ratio; key = CC(C)(C)NC(=O)N1CCN(C(=O)N2C(=O)[C@H](CCCN=C(N)N)[C@H]2C(=O)O)CC1
2620

Record: N=C(N)N1CCC[C@H](C[C@H]2C(=O)N(C(=O)N3CCN(C(=O)CCCCCc4ccccc4)CC3)[C@@H]2C(=O)O)C1
> 19400

Record: N=C(N)N1CCCC(C[C@H]2C(=O)N(C(=O)N3CCN(C(=O)CCCCCC4CCCCC4)CC3)[C@@H]2C(=O)O)C1 (stereo partly drawn)
> 17400

Record: CC(C)C(OC(=O)N1CCN(C(=O)N2C(=O)[C@H](CC3CCCN(C(=N)N)C3)[C@H]2C(=O)O)CC1)C(C)C (single isomer, unassigned)
> 162

Record: N=C(N)N1CCCC(C[C@H]2C(=O)N(C(=O)N3CCN(C(=O)NCCCCc4ccccc4)CC3)[C@@H]2C(=O)O)C1 (stereo partly drawn)
> 19400

Record: N=C(N)N1CCCC(C[C@H]2C(=O)N(C(=O)N3CCN(C(=O)CCCCCc4ccccc4)CC3)[C@@H]2C(=O)O)C1 (stereo partly drawn)
> 19400

Record: CC(C)C(OC(=O)N1CCN(C(=O)N2C(=O)[C@H](CC3CCCN(C(=N)N)C3)[C@H]2C(=O)O)CC1)C(C)C (stereo in doubt; form 2)
> 465

Record: N=C(N)N1CCC[C@@H](C[C@H]2C(=O)N(C(=O)N3CCN(C(=O)CCCCCc4ccccc4)CC3)[C@@H]2C(=O)O)C1
> 19400
